The entries below come with measured pIC50 values attached.
- experimental system: Nav 1.7 (Homo sapiens (Human), UniProt Q15858)
- Sequence (Q15858 whole entry): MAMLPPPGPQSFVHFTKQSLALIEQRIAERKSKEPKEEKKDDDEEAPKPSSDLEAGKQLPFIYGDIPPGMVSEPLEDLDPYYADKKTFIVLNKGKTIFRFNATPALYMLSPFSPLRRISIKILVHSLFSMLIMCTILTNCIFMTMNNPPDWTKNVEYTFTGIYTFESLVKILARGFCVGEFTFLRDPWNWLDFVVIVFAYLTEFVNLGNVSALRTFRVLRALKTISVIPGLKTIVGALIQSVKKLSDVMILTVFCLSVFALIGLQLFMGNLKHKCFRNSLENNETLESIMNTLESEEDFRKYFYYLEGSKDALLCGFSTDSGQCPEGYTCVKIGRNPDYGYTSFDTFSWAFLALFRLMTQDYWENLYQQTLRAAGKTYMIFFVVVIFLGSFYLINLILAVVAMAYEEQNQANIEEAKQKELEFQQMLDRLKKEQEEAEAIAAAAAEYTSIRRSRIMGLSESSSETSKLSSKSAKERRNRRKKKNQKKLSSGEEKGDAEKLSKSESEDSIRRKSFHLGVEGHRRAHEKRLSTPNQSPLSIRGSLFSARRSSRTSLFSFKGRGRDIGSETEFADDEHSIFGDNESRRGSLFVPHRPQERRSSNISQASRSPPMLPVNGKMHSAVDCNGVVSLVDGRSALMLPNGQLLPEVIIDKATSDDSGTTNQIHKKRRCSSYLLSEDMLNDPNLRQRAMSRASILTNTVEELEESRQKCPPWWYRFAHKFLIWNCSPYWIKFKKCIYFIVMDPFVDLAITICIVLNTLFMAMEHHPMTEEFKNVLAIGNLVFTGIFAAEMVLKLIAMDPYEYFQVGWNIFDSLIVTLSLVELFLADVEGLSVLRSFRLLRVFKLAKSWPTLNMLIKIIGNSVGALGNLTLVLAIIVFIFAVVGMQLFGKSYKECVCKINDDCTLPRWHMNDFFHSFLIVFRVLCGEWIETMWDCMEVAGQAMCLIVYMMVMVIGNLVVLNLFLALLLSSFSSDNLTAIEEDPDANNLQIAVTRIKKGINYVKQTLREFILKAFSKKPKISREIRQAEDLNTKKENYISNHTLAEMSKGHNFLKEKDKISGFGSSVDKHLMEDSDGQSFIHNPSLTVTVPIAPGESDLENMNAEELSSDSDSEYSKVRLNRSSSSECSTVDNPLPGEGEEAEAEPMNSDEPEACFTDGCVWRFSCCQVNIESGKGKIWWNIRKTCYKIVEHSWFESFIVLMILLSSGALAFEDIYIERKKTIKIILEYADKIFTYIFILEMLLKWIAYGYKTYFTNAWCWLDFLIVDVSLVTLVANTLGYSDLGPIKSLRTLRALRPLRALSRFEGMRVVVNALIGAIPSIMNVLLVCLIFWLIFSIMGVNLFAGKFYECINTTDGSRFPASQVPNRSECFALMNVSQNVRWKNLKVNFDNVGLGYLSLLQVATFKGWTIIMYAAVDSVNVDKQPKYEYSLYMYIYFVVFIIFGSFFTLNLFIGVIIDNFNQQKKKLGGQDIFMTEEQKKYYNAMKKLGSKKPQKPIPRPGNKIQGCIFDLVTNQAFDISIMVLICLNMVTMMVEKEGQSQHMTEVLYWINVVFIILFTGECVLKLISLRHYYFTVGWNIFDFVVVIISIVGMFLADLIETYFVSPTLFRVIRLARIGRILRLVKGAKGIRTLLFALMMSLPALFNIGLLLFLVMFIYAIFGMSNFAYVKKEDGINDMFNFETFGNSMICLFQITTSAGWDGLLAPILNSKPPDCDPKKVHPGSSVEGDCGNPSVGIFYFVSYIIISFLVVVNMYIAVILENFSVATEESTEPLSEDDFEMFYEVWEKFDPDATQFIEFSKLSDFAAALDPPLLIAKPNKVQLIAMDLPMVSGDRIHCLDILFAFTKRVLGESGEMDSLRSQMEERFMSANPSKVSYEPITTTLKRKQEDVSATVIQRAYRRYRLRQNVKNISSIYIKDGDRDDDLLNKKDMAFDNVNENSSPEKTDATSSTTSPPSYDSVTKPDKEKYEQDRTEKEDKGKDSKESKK
- test details: Inhibition of sodium channels, Red Membrane Potential Dye FLIPR assay, veratridine depolarization
- Type: cell-based
- applied conditions: HEK-293 cells overexpressing the channel; read-out: Nav1.7 IC50
Note: pIC50 values are expressed as the negative base-10 logarithm of concentration in M.

Known pIC50 results, listed for orientation:
- molecular string: "CS(=O)(=O)CCc1cc(C(F)(F)F)ccc1[C@H]1CCOc2cc(S(=O)(=O)Nc3ncc(F)cn3)ccc21"
  pIC50: 5.62
- molecular string: "COCCCOc1cc(C(F)(F)F)ccc1[C@@H]1CCOc2cc(S(=O)(=O)Nc3ncccn3)ccc21"
  pIC50: 5.77
- molecular string: "O=C(O)c1ccc(-c2cc(C(F)(F)F)ccc2[C@@H]2CCOc3cc(S(=O)(=O)Nc4ncc(F)cn4)ccc32)cc1"
  pIC50: 5.74

Using the record for Cc1nc(-c2cc(C(F)(F)F)ccc2[C@@H]2CCOc3cc(S(=O)(=O)Nc4cccnn4)ccc32)co1 , report its pIC50.
5.60

====

- experimental system: Nav 1.7 (Homo sapiens (Human))
- test details: Inhibition of sodium channels, Red Membrane Potential Dye FLIPR assay, veratridine depolarization
- Type: cell-based
- applied conditions: HEK-293 cells overexpressing the channel; read-out: Nav1.7 IC50 (bound given in μM)
quantity name: IC50

Fill blank: measured IC50 of the compound O=S(=O)(Nc1ncccn1)c1ccc2c(c1)OCC[C@H]2c1ccc(C(F)(F)F)cc1OCCCF is ____.
> 10 µM

====

- experimental system: Nav 1.7 (Homo sapiens (Human))
- test details: Inhibition of sodium channels, Red Membrane Potential Dye FLIPR assay, veratridine depolarization
- Assay type: cell-based
- applied conditions: HEK-293 cells overexpressing the channel; read-out: Nav1.7 IC50
quantity name: IC50
Answer with the number, then the unit.

Looking for the measured IC50 of CCCc1cc(C(F)(F)F)ccc1[C@H]1CCOc2cc(S(=O)(=O)Nc3ncccn3)ccc21 , can you help?
124 nM

Fill in the blank: the reported IC50 of COCCc1cc(C(F)(F)F)ccc1[C@H]1CCOc2cc(S(=O)(=O)Nc3ccncn3)ccc21 (racemic) is ____.
588 nM

Recorded IC50 for O=S(=O)(Nc1cccnn1)c1ccc2c(c1)OCC[C@@H]2c1ccc(C(F)(F)F)cc1-c1nccs1 (racemic) , please?
11 nM

May I ask what IC50 has been recorded for O=C(O)c1ccc(-c2cc(C(F)(F)F)ccc2[C@H]2CCOc3cc(S(=O)(=O)Nc4cccc(F)n4)ccc32)cc1 (racemic) ?
8 nM

# IC50 lookup, item O=S(=O)(Nc1ncc(F)cn1)c1ccc2c(c1)OCC[C@@H]2c1ccc(C(F)(F)F)cc1CCCCF (racemic)
61 nM

Please report the recorded IC50 for O=C1CCCN1c1cc(C(F)(F)F)ccc1[C@H]1CCOc2cc(S(=O)(=O)Nc3cccc(F)n3)ccc21 .
801 nM

# lookup: IC50 of COCCCOc1cc(C(F)(F)F)ccc1[C@H]1CCOc2cc(S(=O)(=O)Nc3cccc(F)n3)ccc21 (racemic)
31 nM

====

- experimental system: Nav 1.5 (Homo sapiens (Human))
- Sequence (Q14524 whole entry): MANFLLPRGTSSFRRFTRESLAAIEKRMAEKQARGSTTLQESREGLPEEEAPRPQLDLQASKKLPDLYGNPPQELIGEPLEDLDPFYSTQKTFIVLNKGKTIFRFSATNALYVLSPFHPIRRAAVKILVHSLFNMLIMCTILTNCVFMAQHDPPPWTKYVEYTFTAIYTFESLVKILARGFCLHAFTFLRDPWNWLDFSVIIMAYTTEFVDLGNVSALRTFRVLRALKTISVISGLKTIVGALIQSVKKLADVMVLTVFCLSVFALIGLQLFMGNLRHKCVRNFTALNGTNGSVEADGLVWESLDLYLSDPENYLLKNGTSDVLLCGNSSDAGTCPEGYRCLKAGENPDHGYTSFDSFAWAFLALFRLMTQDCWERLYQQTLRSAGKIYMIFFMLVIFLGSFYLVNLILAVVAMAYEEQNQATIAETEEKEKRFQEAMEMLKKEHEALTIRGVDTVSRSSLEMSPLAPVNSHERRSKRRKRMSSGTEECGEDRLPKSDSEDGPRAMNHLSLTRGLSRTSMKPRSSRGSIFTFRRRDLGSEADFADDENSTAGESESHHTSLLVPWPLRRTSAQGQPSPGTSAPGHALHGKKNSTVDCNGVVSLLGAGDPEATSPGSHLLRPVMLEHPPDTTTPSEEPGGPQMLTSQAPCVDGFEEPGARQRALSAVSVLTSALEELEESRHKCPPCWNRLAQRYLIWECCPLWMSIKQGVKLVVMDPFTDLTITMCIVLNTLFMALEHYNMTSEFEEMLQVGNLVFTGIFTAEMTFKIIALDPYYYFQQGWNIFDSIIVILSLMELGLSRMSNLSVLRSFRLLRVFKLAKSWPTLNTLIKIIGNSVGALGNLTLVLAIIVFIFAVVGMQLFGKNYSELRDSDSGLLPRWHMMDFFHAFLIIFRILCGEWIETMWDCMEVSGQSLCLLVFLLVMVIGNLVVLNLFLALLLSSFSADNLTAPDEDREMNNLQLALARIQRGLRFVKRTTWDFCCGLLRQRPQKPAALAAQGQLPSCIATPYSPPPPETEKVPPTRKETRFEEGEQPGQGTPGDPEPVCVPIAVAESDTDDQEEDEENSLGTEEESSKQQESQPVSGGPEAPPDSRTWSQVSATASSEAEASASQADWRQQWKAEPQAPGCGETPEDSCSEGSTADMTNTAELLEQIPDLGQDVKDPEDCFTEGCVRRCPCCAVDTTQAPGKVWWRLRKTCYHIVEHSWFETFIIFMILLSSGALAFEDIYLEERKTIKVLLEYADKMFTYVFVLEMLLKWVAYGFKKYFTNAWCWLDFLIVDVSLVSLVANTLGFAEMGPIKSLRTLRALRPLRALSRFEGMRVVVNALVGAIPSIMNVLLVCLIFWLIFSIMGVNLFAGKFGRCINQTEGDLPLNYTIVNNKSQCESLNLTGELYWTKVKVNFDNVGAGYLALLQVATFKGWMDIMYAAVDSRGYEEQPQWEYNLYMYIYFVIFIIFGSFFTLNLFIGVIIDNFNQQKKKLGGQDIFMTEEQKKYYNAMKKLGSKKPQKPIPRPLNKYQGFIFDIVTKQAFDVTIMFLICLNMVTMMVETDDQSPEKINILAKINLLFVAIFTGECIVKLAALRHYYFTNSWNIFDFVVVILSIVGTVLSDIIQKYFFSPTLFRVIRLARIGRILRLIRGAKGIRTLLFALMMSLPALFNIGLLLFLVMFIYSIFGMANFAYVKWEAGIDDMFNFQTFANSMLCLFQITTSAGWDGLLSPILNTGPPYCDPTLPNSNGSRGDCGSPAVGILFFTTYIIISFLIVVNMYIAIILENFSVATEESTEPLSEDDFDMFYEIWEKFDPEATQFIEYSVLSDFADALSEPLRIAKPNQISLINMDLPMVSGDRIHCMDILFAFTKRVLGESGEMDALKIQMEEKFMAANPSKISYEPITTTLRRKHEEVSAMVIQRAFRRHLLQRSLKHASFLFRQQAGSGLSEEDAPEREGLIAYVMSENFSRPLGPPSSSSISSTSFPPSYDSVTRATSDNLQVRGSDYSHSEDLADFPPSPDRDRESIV
- test details: Inhibition of sodium channels, Red Membrane Potential Dye FLIPR assay, veratridine depolarization
- Format: cell-based
- applied conditions: HEK-293 cells overexpressing the channel; 10 μM
quantity name: Nav1.5 % inhibition @ 10 μM (%)
Answer in %, number only, no unit symbol.

Use the examples below as a reference point.
- molecular string: "CC(C)Oc1ccc(-c2cc(C(F)(F)F)ccc2[C@@H]2CCOc3cc(S(=O)(=O)Nc4ncc(F)cn4)ccc32)cn1"
  numeric readout: 80
- molecular string: "O=S(=O)(Nc1cccc(F)n1)c1ccc2c(c1)OCC[C@@H]2c1ccc(C(F)(F)F)cc1-c1ccc(F)cc1"
  numeric readout: 38
- molecular string: "Cc1nc(-c2cc(C(F)(F)F)ccc2[C@H]2CCOc3cc(S(=O)(=O)Nc4cccnn4)ccc32)co1"
  numeric readout: 53
- molecular string: "Cc1ccc(NS(=O)(=O)c2ccc3c(c2)OCC[C@@H]3c2ccc(C(F)(F)F)cc2-c2ccnn2C)nc1"
  numeric readout: 74

Which measured Nav1.5 % inhibition @ 10 μM belongs to COCCCCc1cc(C(F)(F)F)ccc1[C@H]1CCOc2cc(S(=O)(=O)Nc3ncccn3)ccc21 , tested on Nav 1.5 (Homo sapiens (Human))?
60

What value of Nav1.5 % inhibition @ 10 μM on Nav 1.5 (Homo sapiens (Human)) does Cn1nccc1-c1cc(C(F)(F)F)ccc1[C@@H]1CCOc2cc(S(=O)(=O)Nc3ccc(F)cn3)ccc21 have?
58

Lab note: need Nav1.5 % inhibition @ 10 μM for CC(C)Oc1ccc(-c2cc(C(F)(F)F)ccc2[C@@H]2CCOc3cc(S(=O)(=O)Nc4ncccn4)ccc32)cn1 on Nav 1.5 (Homo sapiens (Human)), anyone have it?
71
